biological target: MHC class I molecule B*0702; experiment: iTopia affinity assay (ED50), peptide titration on plate-bound MHC; details: remark: other sources report otherwise
Endpoint name: EC50 (nM)
Give your result in nM as a bare value.

# EC50 lookup, item RLARLALVL (here or on the partner: biotin (bound via biotin to streptavidin-coated plates)) [5T4 9 mer peptide 9 (…)]
700
